From: patent US8008547B2

Protocol notes: Standard protocol for determination of kcat and KM (continuous spectrophotometric assay, Acetyl CoA hydrolysis at 235 nm)
Assay type: biochemical
Condition set: purified protein; about 23° C.; 20 mM HEPES pH 6.8, 10% ethylene glycol, 0.2 mM acetyl CoA
Please provide measured Kcat for the entries that follow.
Answers are plain numbers, in s⁻¹.

A selection of reference data follows.
- Molecule: "SEQ ID NO: 345: GAT polypeptide (protein, 19C6, GAT polypeptide) MIEVKPINAEDTYEIRHRILRPNQPLEACKYETDLLGGTFHLGGYYRGKLICIASFHQAEHSELEGQKQYQLRGMATLEGYREQKAGSTLIRHAEELLRKKGADLLWCNARTSVRGYYEKLGFSEQGGVYDIPPIGPHILMYKKLA"
  Measurement units: "s⁻¹"
  Obs value: 0.0367
- Molecule: "SEQ ID NO: 490: GAT polypeptide (protein, 3_6B1, GAT polypeptide) MLEVKPINAEDTYELRHRILRPNQPIEACMYESDLLRGAFHLGGYYRGKLISIASFHQAEHPELQGQKQYQLRGMATLEGYREQKAGSSLIKHAEEILRKRGADLLWCNARTSASGYYKKLGFSEQGEVFETPPVGPHILMYKRIT"
  Measurement units: "s⁻¹"
  Obs value: 4.3847

Now consider the entry below.
Query: Let me know recorded Kcat for SEQ ID NO: 276: GAT polypeptide (protein, 10_23F2, GAT polypeptide) MIEVKPINAEDTYEIRHRILRPNQPLEACMYETDLLGGTFHLGGYYRGKLVSIASFHQAEHPELEGQKQYQLRGMATLEGYREQKAGSTLIRHAEELLRKKGADLLWCNARTSASGYYKKLGFSEQGEVYDTPPVGPHILMYKKLT , thanks.
Reply: 1.688
